test system: SR leukemia; assay: NCI-60 one-dose screen, 48 h; settings: 10 µM unless noted
This is part of a sample that, as a whole, favours compounds with a hit. Of some 83,000 tested, about 20% had one in any assay. Activity calls are given as the source filed them. Rule for the calls: active = growth percent below 10; inactive = the rest.
Response enum: active, inactive

{"COMPOUND": "COC1/C=C/OC2(C)Oc3c(C)c(O)c4c(O)c(c(/C=N/Nc5ccc([N+](=O)[O-])cc5[N+](=O)[O-])c(O)c4c3C2=O)NC(=O)C(C)=C/C=C/C(C)C(O)C(C)C(O)C(C)C(OC(C)=O)C1C (stereo unspecified)", "MEASURED ON": "SR leukemia", "LABEL": "active"}
{"COMPOUND": "N#CC1=C(N)Oc2c(ccc3ccccc23)C1c1ccccc1 (stereo unspecified)", "MEASURED ON": "SR leukemia", "LABEL": "inactive"}
{"COMPOUND": "O=c1c2cnn(-c3ccccc3)c2n2c(CN3CCOCC3)nnc2n1-c1ccccc1", "MEASURED ON": "SR leukemia", "LABEL": "inactive"}
{"COMPOUND": "CC(C)=CCCC(C)c1ccc(C)c2c1OCN(CCCCCO)C2 (stereo unspecified)", "MEASURED ON": "SR leukemia", "LABEL": "inactive"}
{"COMPOUND": "CCc1ccc(CCCC(=O)O)cc1", "MEASURED ON": "SR leukemia", "LABEL": "inactive"}

Input: Assay result, entry COc1ccccc1N1CCCCC1 — outcome?
Output: inactive

Input: Assay result, entry Clc1cccc(Nc2ncnc3ccc(-c4cnc5[nH]ccc5c4)cc23)c1 — outcome?
Output: inactive

Input: Assay result, entry O=C1c2ccc3c4c5ccc(c24)C(=O)N1CCCOCCCCOCCCNCc1ccc(cc1)CNCCCOCCCCOCCCN(C3=O)C5=O — outcome?
Output: active

Input: Assay result, entry Cc1cc(=O)oc2cc(OCc3nn4c(Nc5nc6ccccc6s5)c(-c5ccccc5)nc4s3)ccc12 — outcome?
Output: inactive

Input: Assay result, entry Cc1cn(-c2cc(NC(=O)c3cncc(C#Cc4cnc(N)c5ncccc45)c3)cc(C(F)(F)F)c2)cn1 — outcome?
Output: inactive

Input: Assay result, entry CN(C)CC(C)(C)C(=O)/C=C/c1ccccc1 — outcome?
Output: active

Input: Assay result, entry C=CCn1c(SCC(=O)Nc2ccc(C(=O)/C=C/c3ccc(Cl)cc3)cc2)nnc1-c1ccc(Br)cc1 — outcome?
Output: inactive

Input: Assay result, entry N#Cc1ccc(O)c(C2=NCC(c3cccc(Oc4ccccc4)c3)O2)c1 (stereo unspecified) — outcome?
Output: inactive

Input: Assay result, entry COc1c(C(=O)Nc2ccc(C)c(Br)c2)ccc2ccccc12 — outcome?
Output: inactive

Input: Assay result, entry COc1ccc(-c2noc(C(=O)O)c2-c2cc(OC)c(OC)c(OC)c2)cc1 — outcome?
Output: inactive

Input: Assay result, entry C#CCNC(=O)[C@H](CC)[C@H]1CC[C@H](C)[C@H]([C@@H](C)[C@H](O)[C@H](C)C(=O)[C@H](CC)C2O[C@]3(C=CC(=O)[C@]4(CC[C@@](C)([C@H]5CC[C@](O)(CC)[C@H](C)O5)O4)O3)[C@H](C)C[C@@H]2C)O1 (stereo partly specified) — outcome?
Output: inactive

Input: Assay result, entry O=C(Nc1ccc(Oc2cccc(Cl)c2)c(Cl)c1)c1cnccn1 — outcome?
Output: inactive

Input: Assay result, entry O=C(/C=C(/C=C/c1ccc2[nH]ccc2c1)OB(F)F)/C=C/c1ccc2[nH]ccc2c1 — outcome?
Output: active

Input: Assay result, entry COc1ccc2c(c1)N(CCO)C1=C(C(=O)OC1)C2c1cccc(F)c1 (stereo unspecified) — outcome?
Output: inactive

Input: Assay result, entry CC(C)c1ccc(Cc2cnc(NC(=O)c3cc(Br)cs3)s2)cc1 — outcome?
Output: inactive

Input: Assay result, entry Nc1n[nH]c2cccc(C#Cc3cccc(C(=O)Nc4cc(C(F)(F)F)cc(C(F)(F)F)c4)c3)c12 — outcome?
Output: inactive

Input: Assay result, entry CC(C)=CCC[C@](C)(O)[C@H]1CC[C@]2(C)[C@@H]1CC[C@@H]1[C@@]3(C)C/C(=C/c4ccco4)C(=O)C(C)(C)[C@@H]3CC[C@]12C — outcome?
Output: inactive

Input: Assay result, entry COC(=O)CC[C@H](C)[C@H]1CC[C@H]2[C@@H]3CC[C@@H]4CC5(CC[C@]4(C)[C@H]3CC(=O)[C@]12C)Nc1ccccc1NC5=NC(C)(C)C (stereo partly specified) — outcome?
Output: inactive

Input: Assay result, entry Cn1cc(-c2ccc3nc(-c4ccc(CC(=O)ONc5cc(C(C)(C)C)on5)cc4)cnc3c2)cn1 — outcome?
Output: inactive

Input: Assay result, entry COc1ccc(C(=O)c2cc3c(N)c(C(=O)Nc4ccc(C)cc4)sc3nc2C)cc1 — outcome?
Output: inactive

* * *

tested on: 786-0 renal; test: NCI-60 one-dose screen, 48 h (100 = growth as untreated, 0 = no growth, -100 = all killed); conditions: 10 µM unless noted
About 83,000 compounds went through this panel and 20% of them were active in at least one assay; those are over-represented in the sample as a whole. Active and inactive are the calls of the source. How the source made its calls: active means growth percent below 10; inactive means the rest.
In this section we review reported growth values for a set of molecules.

{"MOLECULE": "CNC(=O)c1ccccc1Oc1nc(Nc2cc(OC)c(OC)c(OC)c2)ncc1Br", "READOUT TYPE": "growth", "OBSERVED VALUE": "48.9% (inactive)"}
{"MOLECULE": "COc1ccc(/C=C(\\C#N)n2nnc3ccc(Cl)cc32)cc1", "READOUT TYPE": "growth", "OBSERVED VALUE": "39.8% (inactive)"}

Input: Dear colleague, please send me the reported growth for COc1ccc(NC(=O)c2sc3nc(C)c(C(=O)/C=C/c4ccccc4)cc3c2N)cc1 when you can.
Output: 2.08% (active)

Input: Dear colleague, please send me the reported growth for CCCCNCCCCCNc1cc(OC)cc2cccnc12 when you can.
Output: 90.1% (inactive)

Input: Dear colleague, please send me the reported growth for O=C(NNC(=O)c1ccc(NC(=O)c2ccccn2)cc1)Nc1ccc([N+](=O)[O-])cc1 when you can.
Output: 96.5% (inactive)

Input: Dear colleague, please send me the reported growth for Nc1ncnc2c1c(-c1cccc(Cl)c1)nn2CC(=O)N1CCOCC1 when you can.
Output: 94.8% (inactive)

Input: Dear colleague, please send me the reported growth for CCC(=C(c1ccc(OCCN2CCCCC2)cc1)c1ccc(OCCN2CCCCC2)cc1)c1ccc(Cl)cc1 when you can.
Output: -88.8% (active)

Input: Dear colleague, please send me the reported growth for CCCCCCCCCCC(CN(CC)CC)C(O)c1ccccc1 (stereo not given) when you can.
Output: 49.1% (inactive)

Input: Dear colleague, please send me the reported growth for N#Cc1nc(-c2ccccc2)oc1S(=O)(=O)N1CCN(c2ccccc2)CC1 when you can.
Output: 99.8% (inactive)

Input: Dear colleague, please send me the reported growth for CN1C(=O)/C(=C\c2c(Cl)cccc2Cl)c2ccccc21 when you can.
Output: 84.3% (inactive)

* * *

tested on: NCI-H322M lung; assay: NCI-60 one-dose screen, 48 h (100 = growth as untreated, 0 = no growth, -100 = all killed); conditions: 10 µM unless noted
About 83,000 compounds went through this panel and 20% of them were active in at least one assay; those are over-represented in the sample as a whole.
Define the label as yes (1) when growth is strictly less than 80% and as no (0) in all remaining cases.

Consider the worked cases shown below.
{"COMPOUND SMILES": "Fc1cc2c(cc1Cl)N(c1ncnc3ccc(-c4ccc5n[nH]nc5c4)cc13)CC2", "LABEL": "yes (1)"}
{"COMPOUND SMILES": "N#Cc1c(-c2ccccc2)[nH]c2ncc(-c3ccccc3)n2c1=O", "LABEL": "no (0)"}
{"COMPOUND SMILES": "O=C(O)CCCN1C(=O)/C(=C/c2cn(-c3ccccc3)nc2-c2ccc([N+](=O)[O-])cc2)SC1=S", "LABEL": "yes (1)"}

Turning to the following compound.
Input: Regarding CC(=O)n1nc(C(=O)OC(C)(C)c2ccccc2)c2ccccc21 , kindly confirm whether its growth is beneath 80%.
Output: no (0)

* * *

system: RPMI-8226 leukemia; assay: NCI-60 one-dose screen, 48 h; details: 10 µM unless noted
Compounds without any hit were thinned out: in the full panel of roughly 83,000, 20% have a hit. Active and inactive are the calls of the source. Rule for the calls: active = growth percent below 10; inactive = the rest.
Response enum: true (1) = active, false (0) = inactive

{"COMPOUND": "COc1cc2nc3cc([N+](=O)[O-])ccc3c(NCCNCC(C)O)c2cc1OC (centres undefined)", "LABEL": "true (1)"}

Input: Assay result, entry CC1CCN(CCOc2ccc(CNc3ccc4nc(CCC5CCCCC5)[nH]c4c3)cc2)CC1 — outcome?
Output: true (1)

Input: Assay result, entry COc1c(B(O)O)cccc1-c1nc2c(F)cc3[nH]ncc3c2c2c1CCCC2 — outcome?
Output: true (1)

Input: Assay result, entry Cc1cccc(/C=C/c2c(C(=O)/C=C/c3ccccc3)c(C)nc3ccccc23)c1 — outcome?
Output: true (1)

Input: Assay result, entry COC1=CC(c2ccc[nH]2)=N/C1=C\c1[nH]c(C)c(CC(=O)OCc2ccccc2)c1CCC(=O)OCc1ccccc1 — outcome?
Output: true (1)

Input: Assay result, entry Cc1c(O)cc(-c2cnc(Nc3ccccc3)s2)c(O)c1C — outcome?
Output: false (0)

Input: Assay result, entry Cc1cn(-c2cc(NC(=O)c3cncc(C#Cc4cnc(N)c5ncccc45)c3)cc(C(F)(F)F)c2)cn1 — outcome?
Output: false (0)

Numbers sourced from PubChem BioAssay (NCI).
